Source of measurements: ChEMBL document CHEMBL1781927

# protocol: Apparent permeability from apical to basolateral side in MDCK2 cells at 5 uM after 120 mins
# Format: ADME, cell-based, Canis lupus familiaris, MDCK-II
# conditions_used: dog, MDCK
readout_label: Papp A→B at 2 h, 5 µM (×10⁻⁶ cm/s)
Unit ×10⁻⁶ cm/s implied. Number only.

Recorded Papp A→B at 2 h, 5 µM, per entry:
> print(dat)
                             mol.smiles  measured.number
1  c1ccc2cc(-c3[nH]nnc3-c3ccncc3)ccc2c1             15.2
2     c1ccc2cc(-c3cnnn3-c3ccncc3)ccc2c1             37.9

Ask: Using the record for c1ccc2cc(-n3cnnc3-c3ccncc3)ccc2c1 , report its Papp A→B at 2 h, 5 µM.
Result: 30.6

Ask: Using the record for c1ccc2cc(-c3n[nH]cc3-c3ccncc3)ccc2c1 , report its Papp A→B at 2 h, 5 µM.
Result: 16.9
